Documented pIC50 across a set of compounds
Experiment: Inhibition of full length human ABCB1 expressed in Flp-In-293 cells assessed as potentiation of vincristine-induced cytotoxicity by measuring vincristine IC50 at 8 uM after 72 hrs by SRB assay (Rvb = 823.13 +/- 15.79 nM)
Scale explanation: pIC50 corresponds to minus log10 of a concentration expressed in moles per litre.

Known results for compounds:
Structure as smiles | Reported metric | Endpoint value
Cc1cccc(-c2coc3c(c(O)cc4occ(-c5cccc(C)c5)c(=O)c43)c2=O)c1 | pIC50 | 7.28
COc1ccc(-c2coc3c(c(O)cc4occ(-c5ccc(OC)c(OC)c5)c(=O)c43)c2=O)cc1OC | pIC50 | 6.69

Shift focus to the following entry.
### Prompt So what's the measured pIC50 for this one? COc1ccc(-c2coc3c(c(O)cc4occ(-c5ccc(OC)cc5)c(=O)c43)c2=O)cc1
### Response 6.24
